# Target Under Test: Vasopressin V1b receptor (Homo sapiens)
# Assay Remarks: Agonist activity at human V1b receptor expressed in CHO cells assessed as calcium mobilization measured after 30 mins by Fluo-4-AM dye based FLIPR assay
# Type: cell-based
Bridge positions count the residues as written; N and C are the ends. Square brackets hold non-standard residues; d marks the D form. Peptide text beside a SMILES is read from it. Mpa = O=C(O)CCS
Result Type: EC50 (nM)

1. CC[C@H](C)[C@@H]1NC(=O)[C@H](Cc2ccc(O)cc2)NC(=O)CCSSC[C@@H](C(=O)N2CCC[C@H]2C(=O)N[C@@H](CC(C)C)C(=O)NCC(N)=O)NC(=O)[C@H](CC(N)=O)NC(=O)[C@H](CC(C)C)NC1=O ([Mpa]YILNCPLG-NH2; disulfide 1-6); 23
2. CCCC[C@H](NC(=O)[C@@H]1CCCN1C(=O)[C@@H]1CSSCCC(=O)N[C@@H](Cc2ccc(O)cc2)C(=O)N[C@@H]([C@@H](C)CC)C(=O)N[C@@H](CCC(N)=O)C(=O)N[C@@H](CC(N)=O)C(=O)N1)C(=O)NCC(N)=O; 0.5
3. CC[C@H](C)[C@@H]1NC(=O)[C@H](Cc2ccc(O)cc2)NC(=O)CCSSC[C@@H](C(=O)N2CCC[C@H]2C(=O)N[C@@H](CC(C)C)C(=O)NCC(N)=O)NC(=O)[C@H](CC(N)=O)NC(=O)[C@H](CCC(N)=O)NC1=O; 3.2
4. CC[C@H](C)[C@@H]1NC(=O)[C@H](Cc2ccc(O)cc2)NC(=O)CCSSC[C@@H](C(=O)N2CCC[C@H]2C(=O)N[C@@H](C)C(=O)NCC(N)=O)NC(=O)[C@H](CC(N)=O)NC(=O)[C@H](CCC(N)=O)NC1=O ([Mpa]YIQNCPAG-NH2; disulfide 1-6); 0.17

====

# Target Under Test: Vasopressin V1b receptor (Homo sapiens, UniProt P47901)
# Sequence (P47901 whole entry): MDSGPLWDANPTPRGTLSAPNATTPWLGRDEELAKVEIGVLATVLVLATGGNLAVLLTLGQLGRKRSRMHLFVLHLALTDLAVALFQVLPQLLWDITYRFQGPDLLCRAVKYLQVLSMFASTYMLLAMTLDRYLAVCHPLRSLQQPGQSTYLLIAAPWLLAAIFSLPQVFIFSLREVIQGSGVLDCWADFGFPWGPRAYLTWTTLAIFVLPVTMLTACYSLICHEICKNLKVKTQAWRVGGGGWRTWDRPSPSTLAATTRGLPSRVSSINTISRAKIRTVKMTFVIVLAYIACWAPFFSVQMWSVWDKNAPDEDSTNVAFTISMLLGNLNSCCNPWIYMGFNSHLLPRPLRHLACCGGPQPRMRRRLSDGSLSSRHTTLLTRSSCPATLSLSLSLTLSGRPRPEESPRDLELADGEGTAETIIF
# Assay Remarks: Agonist activity at human V1b receptor expressed in CHO cells assessed as calcium mobilization measured after 30 mins by Fluo-4-AM dye based FLIPR assay
Bridge positions count the residues as written; N and C are the ends. Square brackets hold non-standard residues; d marks the D form. Peptide text beside a SMILES is read from it. Mpa = O=C(O)CCS
Result Type: EC50

1) CC(C)C[C@H](NC(=O)[C@@H]1CCCN1C(=O)[C@@H]1CSSCCC(=O)N[C@@H](Cc2ccc(O)cc2)C(=O)N[C@@H](CCC(=O)O)C(=O)N[C@@H](CCC(N)=O)C(=O)N[C@@H](CC(N)=O)C(=O)N1)C(=O)NCC(N)=O ([Mpa]YEQNCPLG-NH2; disulfide 1-6); > 100 nM
2) CCCCCCC(NC(=O)[C@@H]1CCCN1C(=O)[C@@H]1CSSCCC(=O)N[C@@H](Cc2ccc(O)cc2)C(=O)N[C@@H]([C@@H](C)CC)C(=O)N[C@@H](CCC(N)=O)C(=O)N[C@@H](CC(N)=O)C(=O)N1)C(=O)NCC(N)=O (some centres undefined); 0.55 nM
3) CC[C@H](C)[C@@H]1NC(=O)[C@H](Cc2ccc(O)cc2)NC(=O)CCSSC[C@@H](C(=O)N2CCC[C@H]2C(=O)N[C@@H](CCC(=O)O)C(=O)NCC(N)=O)NC(=O)[C@H](CC(N)=O)NC(=O)[C@H](CCC(N)=O)NC1=O ([Mpa]YIQNCPEG-NH2; disulfide 1-6); > 100 nM
4) CC[C@H](C)[C@@H]1NC(=O)[C@H](Cc2ccc(O)cc2)NC(=O)CCSSC[C@@H](C(=O)N2CCC[C@H]2C(=O)N[C@@H](CC(C)C)C(=O)NCC(N)=O)NC(=O)[C@H](CCCNC(=N)N)NC(=O)[C@H](CCC(N)=O)NC1=O ([Mpa]YIQRCPLG-NH2; disulfide 1-6); > 100 nM

====

# Target Under Test: Vasopressin V1a receptor (Homo sapiens)
# Sequence (P37288 whole entry): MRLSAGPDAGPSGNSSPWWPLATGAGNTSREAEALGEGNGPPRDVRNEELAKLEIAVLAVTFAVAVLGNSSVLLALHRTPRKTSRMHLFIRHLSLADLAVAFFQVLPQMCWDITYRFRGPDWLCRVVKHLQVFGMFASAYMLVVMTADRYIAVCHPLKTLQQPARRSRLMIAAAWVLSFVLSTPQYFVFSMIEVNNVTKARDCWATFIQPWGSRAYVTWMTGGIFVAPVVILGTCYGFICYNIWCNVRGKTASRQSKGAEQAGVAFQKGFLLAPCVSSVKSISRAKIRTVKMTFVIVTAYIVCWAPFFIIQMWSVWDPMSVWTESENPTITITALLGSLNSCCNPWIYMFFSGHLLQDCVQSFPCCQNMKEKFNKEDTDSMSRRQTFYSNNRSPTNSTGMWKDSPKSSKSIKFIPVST
# Assay Remarks: Agonist activity at human V1a receptor expressed in CHO cells assessed as calcium mobilization measured after 30 mins by Fluo-4-AM dye based FLIPR assay
# Assay type: cell-based
pEC50: −log10 of the molar value. Bridge positions count the residues as written; N and C are the ends. Square brackets hold non-standard residues; d marks the D form. Peptide text beside a SMILES is read from it. NMeA = CN[C@@H](C)C(=O)O; Mpa = O=C(O)CCS
Result Type: pEC50

1) CC[C@H](C)[C@@H]1NC(=O)[C@H](Cc2ccc(O)cc2)NC(=O)CCSSC[C@@H](C(=O)N2CCC[C@H]2C(=O)N[C@@H](CC(C)C)C(=O)NCC(N)=O)NC(=O)[C@H](CCCNC(=N)N)NC(=O)[C@H](CCC(N)=O)NC1=O ([Mpa]YIQRCPLG-NH2; disulfide 1-6); < 7.00
2) CC[C@H](C)[C@@H]1NC(=O)[C@H](Cc2ccc(O)cc2)NC(=O)CCSSC[C@@H](C(=O)N(C)[C@@H](C)C(=O)N[C@@H](CC(C)C)C(=O)NCC(N)=O)NC(=O)[C@H](CC(N)=O)NC(=O)[C@H](CCC(N)=O)NC1=O ([Mpa]YIQNC[NMeA]LG-NH2; disulfide 1-6); < 7.00

====

# Species: Homo sapiens
# Assay Remarks: Selectivity ratio of EC50 for human V1a receptor to EC50 for human OTR
Numbered stars: 1 amine (or outer) side, 2 acyl side, 3 side chain; on linkers, the order of the positions; unused ones are H or OH. Bridge positions count the residues as written; N and C are the ends. Square brackets hold non-standard residues; d marks the D form. Peptide text beside a SMILES is read from it. X1 = O=C(CCC[*:2])[*:1]; Mpa = O=C(O)CCS
Each entry below carries its reported Ratio EC50.
Result Type: Ratio EC50

1. CC[C@H](C)[C@@H]1NC(=O)[C@H](Cc2ccc(O)cc2)NC(=O)CCSSC[C@@H](C(=O)N2CCC[C@H]2C(=O)N[C@@H](CC(C)C)C(=O)NCC(N)=O)NC(=O)[C@H](CO)NC(=O)[C@H](CCC(N)=O)NC1=O ([Mpa]YIQSCPLG-NH2; disulfide 1-6); > 8
2. CC(C)C[C@@H]1NC(=O)[C@H](Cc2ccc(O)cc2)NC(=O)CCSSC[C@@H](C(=O)N2CCC[C@H]2C(=O)N[C@@H](CC(C)C)C(=O)NCC(N)=O)NC(=O)[C@H](CC(N)=O)NC(=O)[C@H](CCC(N)=O)NC1=O ([Mpa]YLQNCPLG-NH2; disulfide 1-6); > 100
3. CC[C@H](C)[C@@H]1NC(=O)[C@H](Cc2ccc(O)cc2)NC(=O)CCCSC[C@@H](C(=O)N2CCC[C@H]2C(=O)N[C@@H](CC(C)C)C(=O)NCC(N)=O)NC(=O)[C@H](CC(N)=O)NC(=O)[C@H](CCC(N)=O)NC1=O (YIQNCPLG-NH2; linker N-5 via X1); 6700
4. CCCC[C@H](NC(=O)[C@@H]1CCCN1C(=O)[C@@H]1CSSCCC(=O)N[C@@H](Cc2ccc(O)cc2)C(=O)N[C@@H]([C@@H](C)CC)C(=O)N[C@@H](CCC(N)=O)C(=O)N[C@@H](CC(N)=O)C(=O)N1)C(=O)NCC(N)=O; 290
5. CC[C@H](C)[C@@H]1NC(=O)[C@H](Cc2ccc(O)cc2)NC(=O)CCSSC[C@@H](C(=O)N2CCC[C@H]2C(=O)N[C@@H](CC(C)C)C(=O)NNC(N)=O)NC(=O)[C@H](CC(N)=O)NC(=O)[C@H](CCC(N)=O)NC1=O; 9300
6. CC[C@H](C)[C@@H]1NC(=O)[C@H](CC(C)C)NC(=O)CCSSC[C@@H](C(=O)N2CCC[C@H]2C(=O)N[C@@H](CC(C)C)C(=O)NCC(N)=O)NC(=O)[C@H](CC(N)=O)NC(=O)[C@H](CCC(N)=O)NC1=O ([Mpa]LIQNCPLG-NH2; disulfide 1-6); > 10
7. CC[C@H](C)[C@@H]1NC(=O)[C@H](Cc2ccc(O)cc2)NC(=O)CCSSC[C@@H](C(=O)N2CCC[C@H]2C(=O)N[C@@H](CC2CCCCC2)C(=O)NCC(N)=O)NC(=O)[C@H](CC(N)=O)NC(=O)[C@H](CCC(N)=O)NC1=O; > 1000
8. CC(C)C[C@H](NC(=O)[C@@H]1CCCN1C(=O)[C@@H]1CSSCCC(=O)N[C@@H](Cc2ccc(O)cc2)C(=O)N[C@@H](Cc2ccccc2)C(=O)N[C@@H](CCC(N)=O)C(=O)N[C@@H](CC(N)=O)C(=O)N1)C(=O)NCC(N)=O ([Mpa]YFQNCPLG-NH2; disulfide 1-6); > 100
